Here the recorded GI50 is given for each entry.
- Tested on: MDA-MB-435

{"COMPOUND": "CN(C)c1ccc(Sc2ccc3nc(N)nc(N)c3c2)cc1", "OBSERVED_VALUE": "542 nM"}

stdin: I would be grateful if you could share the reported GI50 for COc1cc(C(=O)N/N=C/c2cccc([N+](=O)[O-])c2)cc(OC)c1OC .
stdout: 1090 nM

stdin: Return reported GI50; argument: COC(=O)C1=C(O)C(C(=O)OC)[C@@]2(O)[C@@H](C(=O)OC)C(c3ccc(OC(=O)C(CC(C)C)NC(C)=O)cc3)C[C@@H]1[C@@H]2C(=O)OC (stereo partly specified)
stdout: > 100000 nM

stdin: # get_value(readout='GI50', item= O=C(CN=Cc1cccs1)CSC(c1ccccc1)c1ccccc1 )
stdout: 17700 nM

stdin: # query: GI50 of entry CCCCCCN1C(=O)CN=C1Nc1ccc2cc3ccc(NC4=NCC(=O)N4CCCCCC)cc3nc2c1
stdout: 1790 nM

---

- Tested on: OVCAR-8 ovarian
- TEST_DETAILS: NCI tumour cell line growth inhibition, 48 h
# if value of TGI reaches 30 µM, tag fulfilled; if it stays below, tag not fulfilled

{"MOLECULE": "CCOc1cc(C=O)ccc1O", "ASSAY_TARGET": "OVCAR-8 ovarian", "ANSWER_LABEL": "fulfilled"}
{"MOLECULE": "O=c1[nH]c2cc(O)ccc2n2cc3c(F)cccc3c12", "ASSAY_TARGET": "OVCAR-8 ovarian", "ANSWER_LABEL": "fulfilled"}
{"MOLECULE": "CC1SC2(CCCCC2)N(NC(=O)c2[nH]c3ccc(F)cc3c2-c2ccccc2)C1=O (stereo not given)", "ASSAY_TARGET": "OVCAR-8 ovarian", "ANSWER_LABEL": "fulfilled"}
{"MOLECULE": "O=C1/C(=C/c2ccccc2)CN(C(=O)OCC(Cl)(Cl)Cl)C/C1=C\\c1ccccc1", "ASSAY_TARGET": "OVCAR-8 ovarian", "ANSWER_LABEL": "not fulfilled"}
{"MOLECULE": "CC(C)[Si]1(C(C)C)OCC2OC(n3cnc4c(N)ncnc43)C(N)C2O[Si](C(C)C)(C(C)C)O1 (stereo not given)", "ASSAY_TARGET": "OVCAR-8 ovarian", "ANSWER_LABEL": "not fulfilled"}

stdin: Is TGI at least 30 µM? Consider O=C1O/C(=C\c2ccc(O)cc2)C(c2ccc(O)c(Cl)c2)=C1Br
stdout: fulfilled

stdin: Please tell me: is the molecule Cc1cnc2[nH]c(-c3ccccc3)cc(=O)c2c1 at or over 30 µM in terms of TGI?
stdout: not fulfilled

stdin: Decide: TGI of O=C1c2cccc3cccc(c23)C(=O)N1CCCN1CCN(CCCN2C(=O)c3cccc4cccc(c34)C2=O)CC1 >= 30 µM?
stdout: fulfilled

stdin: Is it the case that CN(C)c1ccc(Sc2ccc3nc(N)nc(N)c3c2)cc1 has TGI reaching or exceeding 30 µM?
stdout: not fulfilled

---

TGI values for the compounds below.
- Test system: U251 CNS
- TEST_DETAILS: NCI tumour cell line growth inhibition, 48 h
# unit: µM | format: bare number

Here's what some known entries look like.
{"STRUCTURE_AS_SMILES": "COc1ccc(C=O)cc1Oc1ccc(C[C@H]2c3c(cc(OC)c4c3Oc3cc5c(cc3O4)CCN(C)C5=O)CCN2C)cc1", "VALUE_KIND": "TGI", "OBSERVED_VALUE": 22.8}
{"STRUCTURE_AS_SMILES": "C[C@]12CC[C@@H]3c4ccc(O)cc4CC[C@H]3[C@@H]1CC[C@@H]2NS(=O)(=O)c1ccc(-c2ccccc2)cc1", "VALUE_KIND": "TGI", "OBSERVED_VALUE": 32.6}

Now for a further compound.
stdin: For the compound shown here, COc1cc(C(=O)N/N=C/c2cccc([N+](=O)[O-])c2)cc(OC)c1OC , give the reported TGI.
stdout: 26.1

---

- Test system: LXFL 529 NSCLC
- TEST_DETAILS: NCI tumour cell line growth inhibition, 48 h
Listed molecules paired with reported TGI

{"MOLECULE": "Clc1ccccc1C1=NN(c2ccccc2)C2c3cc(Br)ccc3OCC12 (stereo not given)", "TGI": "> 100 µM"}
{"MOLECULE": "O=C1c2ccccc2C(=O)c2c1ccc1c3ccccc3n(Cc3ccccc3)c21", "TGI": "> 100 µM"}
{"MOLECULE": "COc1cc(CC(=O)c2ccc3c(c2)OCO3)cc(OC)c1OC", "TGI": "> 100 µM"}
{"MOLECULE": "Cc1[nH]c(=O)nc(N/N=C/c2ccc(O)cc2)c1C(=O)Nc1ccc(Cl)cc1", "TGI": "> 100 µM"}

Moving on to another molecule below.
stdin: I am curious: what TGI value has been reported for COc1cc(C2c3cc4c(cc3[C@@H](Nc3cccc(O)c3)C3COC(=O)[C@H]23)OCO4)cc(OC)c1O (stereo not given in full) ?
stdout: 24.9 µM

---

- System: NCI-H522 lung
- TEST_DETAILS: NCI tumour cell line growth inhibition, 48 h
VALUE_KIND: GI50

Example entries begin here.
{"MOLECULE": "CCCCCCCCCCCCNC(=O)[C@H]1CSC(c2ccc(OC)c(F)c2)N1 (stereo partly specified)", "GI50": "1.82 µM"}
{"MOLECULE": "COc1cc(C(=O)/C=C/c2c(C(F)(F)F)nc3sccn23)cc(OC)c1OC", "GI50": "2.03 µM"}
{"MOLECULE": "O=c1[nH]c(-c2ccccn2)nc2sc3c(c12)CCCCCC3", "GI50": "> 100 µM"}
{"MOLECULE": "C[C@H](NC(=O)CCC(F)(F)F)C(=O)N[C@@H]1C(=O)N(CCO)c2ncccc2-c2ccccc21", "GI50": "> 100 µM"}
{"MOLECULE": "Nc1ccc2c(c1)CN1C(=O)c3ccccc3C1=N2", "GI50": "12.8 µM"}

stdin: Would you mind telling me what GI50 value was observed for COc1ncnc2c(-c3ccco3)cn(COCc3ccccc3)c12 ?
stdout: 9.97 µM

---

- Tested on: HCT-116 colon
- TEST_DETAILS: NCI tumour cell line growth inhibition, 48 h
VALUE_KIND: TGI

For orientation, consider the following solved cases.
{"MOLECULE": "O=C1CC2Sc3ccccc3N=C2N1c1ccc(Cl)cc1Cl (stereo not drawn)", "ASSAY_TARGET": "HCT-116 colon", "TGI": "> 100 µM"}
{"MOLECULE": "COC(=O)c1ccc(OCc2ccc3nc(-c4ccccc4)c(Cl)nc3c2)cc1", "ASSAY_TARGET": "HCT-116 colon", "TGI": "> 100 µM"}
{"MOLECULE": "CCN1CC2(C)CC[C@@H](OC)C34[C@@H]2[C@H](OC(C)=O)C2(OCO[C@@]25C[C@H](OC)C2C[C@]3(O)[C@@H]5[C@H]2O)[C@H]14", "ASSAY_TARGET": "HCT-116 colon", "TGI": "> 100 µM"}
{"MOLECULE": "CC(=O)c1nccc2c1c(C)nc1ccccc12", "ASSAY_TARGET": "HCT-116 colon", "TGI": "> 100 µM"}
{"MOLECULE": "C/C(=N/Nc1ccc([N+](=O)[O-])cc1[N+](=O)[O-])C(CC(C(=O)Nc1ccccc1C)/C(C)=N\\Nc1ccc([N+](=O)[O-])cc1[N+](=O)[O-])C(=O)Nc1ccccc1C (stereo not drawn)", "ASSAY_TARGET": "HCT-116 colon", "TGI": "26.4 µM"}

stdin: Can you share its TGI? I mean this molecule: CC1SC2(CCCCC2)N(NC(=O)c2[nH]c3ccc(F)cc3c2-c2ccccc2)C1=O (stereo not drawn)
stdout: > 100 µM

stdin: # input molecule: CC(C)(C)c1ccc(S(=O)(=O)N[C@H]2CC[C@H]3[C@@H]4CCc5cc(O)ccc5[C@H]4CC[C@]23C)cc1 ; wanted: its TGI
stdout: 2.98 µM

stdin: Give its TGI value. Item: COC(=O)Nc1nc2ccc(Sc3ccc(NC(=O)Nc4cc(C(F)(F)F)ccc4F)cc3)cc2[nH]1
stdout: 4.67 µM

stdin: Which TGI value belongs to COc1ccc(C[C@H]2COC(=O)[C@@H]2Cc2cc(OC)c(OC)c(OC)c2)cc1OC ?
stdout: > 100 µM

stdin: Quick one: TGI of C=C(C)[C@]12CC(C)C34OC(/C=C\C=C\CCCCCCCCC)(O[C@@H]1[C@@H]3[C@@H]1O[C@]1(CO)[C@@H](O)[C@]1(O)C(=O)C(C)=C[C@@H]41)O2 (stereo partly drawn) ?
stdout: 21 µM

---

- Test system: HOP-62 NSCLC
- TEST_DETAILS: NCI tumour cell line growth inhibition, 48 h
VALUE_KIND: TGI

For orientation, consider the following solved cases.
{"COMPOUND": "Fc1nc(F)nc(-c2c3ccccc3c3n2CCS3)n1", "ASSAY_TARGET": "HOP-62 NSCLC", "TGI": "> 100 µM"}
{"COMPOUND": "C/C=C\\C(CC(=O)O)CC(=O)NCCC1CN(S(=O)(=O)C(F)(F)F)c2ccccc21 (configuration not stated)", "ASSAY_TARGET": "HOP-62 NSCLC", "TGI": "> 100 µM"}
{"COMPOUND": "O=c1[nH]c(-c2ccccn2)nc2sc3c(c12)CCCCCC3", "ASSAY_TARGET": "HOP-62 NSCLC", "TGI": "> 100 µM"}
{"COMPOUND": "C=C(CCC(C(=O)O)C1CCC2(C)C3=C(CCC12C)C1(C)CCC(O)C(C)(C)C1CC3)C(C)C (configuration not stated)", "ASSAY_TARGET": "HOP-62 NSCLC", "TGI": "> 100 µM"}
{"COMPOUND": "Cc1cc(S(=O)(=O)NC(=NCC(=O)NN)NN)c(S)cc1Cl", "ASSAY_TARGET": "HOP-62 NSCLC", "TGI": "> 10 µM"}

stdin: // TGI lookup, key: COc1ccc(N=C2NN=C(c3c[nH]c4ccccc34)CS2)cc1OC
stdout: > 84.1 µM

stdin: Query: TGI; subject: O=C(Cc1nc2ccc([N+](=O)[O-])cc2[nH]c1=O)C(=O)Nc1cc(Cl)c(Cl)cc1Cl
stdout: > 100 µM

stdin: Give the measured TGI of O=C(O)c1ccccc1-c1ccccc1C(=O)c1ccccc1 .
stdout: > 100 µM

stdin: Using the record for Cc1ccc(C2=Nn3c(nc4sc(-c5ccccc5)cc4c3=O)SC2)cc1 , report its TGI.
stdout: > 100 µM

stdin: So what does the record say about TGI for O=C1N2CCc3c([nH]c4ccccc34)C23CC2CCCC12S3 (configuration not stated) ?
stdout: > 50 µM

stdin: Reported TGI, compound O=C1c2cccc3cccc(c23)C(=O)N1CCCN1CCN(CCCN2C(=O)c3cccc4cccc(c34)C2=O)CC1 : ____
stdout: > 100 µM

stdin: State the recorded TGI for this entry: COC(=O)C1=C(O)C(C(=O)OC)[C@@]2(O)[C@@H](C(=O)OC)C(c3ccc(OC(=O)C(CC(C)C)NC(C)=O)cc3)C[C@@H]1[C@@H]2C(=O)OC (some centres not stated)
stdout: > 100 µM

stdin: What does the record list as TGI for O=C(CC(C(=O)O)N1CCOCC1)c1ccccc1 (configuration not stated) ?
stdout: 86.9 µM

stdin: Any idea what its TGI is? The compound is COc1cc(OC)c(/C=C/S(=O)(=O)Cc2ccc(OC)c(NCC(=O)O)c2)c(OC)c1
stdout: > 100 µM

stdin: Please give the measured TGI for this compound: CC(=O)c1nccc2c1c(C)nc1ccccc12
stdout: > 100 µM

stdin: Name the recorded TGI for CCNC(=O)Oc1ccc(/C(=C(\C)c2ccc(Cl)cc2)c2ccc(OCCN3CCCCC3)cc2)cc1 .
stdout: 15.4 µM

stdin: Suppose we examine the compound COc1cc(CC(=O)c2ccc3c(c2)OCO3)cc(OC)c1OC ; what TGI value has been reported?
stdout: > 100 µM
